Protocol summary: Uninfected HeLa-ACE2 24 h live/dead cytotoxicity counter screen
Assay type: cell-based, human
Recorded conditions: human, uninfected HeLa-ACE2 cells; read-out: HeLa-ACE2 uninfected cytotoxicity CC50 GeoMean
Where a name gives a salt, the structure may show the parent alone.
Experimental readout: CC50 at 24 h

>>> df
                                   compound  value_reported
0  CC(C)Oc1ccc(-c2nc(-c3cccc4c3CC[C@@H]4NCCO)no2)cc1C#N       > 14.7 µM
1  Cc1c(O)cccc1C(=O)N[C@@H](CSc1ccccc1)[C@H](O)CN1C[C@H]2CCCC[C@H]2C[C@H]1C(=O)NC(C)(C)C [Nelfinavir mesylate]         > 18 µM
2  CCN(CCO)CCCC(C)Nc1ccnc2cc(Cl)ccc12 (stereo not shown) [Hydroxychloroquine sulfate]       > 18.3 µM
3             CCN(CC)CCCNc1ccnc2cc(Cl)ccc12         25.9 µM

----------
// values below are reported HepG2 72-hour cytotoxicity Sinf Average
Test system: HepG2
Protocol summary: HepG2 72 h CellTiter-Glo cytotoxicity
Recorded conditions: 72 h
Structures can show the parent of a compound that is named as a salt.
Experimental readout: HepG2 72-hour cytotoxicity Sinf Average (%)

>>> print(df.to_string())
                                   compound                     experimental_readout  value_reported
0  COc1cc2c(Nc3ccc(Cl)c(Cl)c3F)ncnc2cc1OC[C@@H]1C[C@@H]2CN(C)C[C@@H]2C1  HepG2 72-hour cytotoxicity Sinf Average            -103
1  CN1[C@@H]2CC[C@H]1C[C@@H](N1Cc3ccc4ccccc4c3C1=O)C2  HepG2 72-hour cytotoxicity Sinf Average            -100
2  COC(=O)[C@H]1[C@H]2C[C@@H]3c4[nH]c5cc(OC)ccc5c4CCN3C[C@H]2C[C@@H](OC(=O)c2cc(OC)c(OC)c(OC)c2)[C@@H]1OC  HepG2 72-hour cytotoxicity Sinf Average            -100
3  NC1(c2ccc(-c3nc4ccn5c(=O)[nH]nc5c4cc3-c3ccccc3)cc2)CCC1  HepG2 72-hour cytotoxicity Sinf Average            -100
4  OC(CNCC(O)C1CCc2cc(F)ccc2O1)C1CCc2cc(F)ccc2O1 (stereo not drawn) [Nebivolol HCl]  HepG2 72-hour cytotoxicity Sinf Average             -99
5  CNC(=O)c1cc(Oc2ccc(NC(=O)Nc3ccc(Cl)c(C(F)(F)F)c3)cc2)ccn1  HepG2 72-hour cytotoxicity Sinf Average            -101

----------
// values below are reported EC50
Tested on: HeLa-ACE2 cells
Protocol summary: Total cell count in the HeLa-ACE2 TOA assay
Assay type: cell-based
Recorded conditions: Homo sapiens, HeLa-ACE2, read-out: HeLa-ACE2 TOA cell count EC50 GeoMean
Counter-ions that a name gives are not always drawn.
Experimental readout: EC50

In [3]: df
Out[3]:
                                   compound           system  value_reported
0  O=c1nc(NO)ccn1[C@@H]1O[C@H](CO)[C@@H](O)[C@H]1O [N-hydroxycytidine]  HeLa-ACE2 cells       > 9.59 µM
1  Cc1cccc(/C=N/Nc2cc(N3CCOCC3)nc(OCCc3ccccn3)n2)c1 [Apilimod - control]  HeLa-ACE2 cells        > 2.4 µM
2  Cc1c(O)cccc1C(=O)N[C@@H](CSc1ccccc1)[C@H](O)CN1C[C@H]2CCCC[C@H]2C[C@H]1C(=O)NC(C)(C)C [Nelfinavir mesylate]  HeLa-ACE2 cells        > 9.6 µM
